# protocol.details: The drug is tested on Collinsella aerofaciens strain: ATCC25986 for biotransformation. The drug concentrations were measured before and after a 12-h incubation by liquid-chromatography-coupled mass spectrometry (LC–MS)
# assay.setup: 2 µM
readout.kind: Bacterial Biotransformation

INSERT INTO assay_data (compound, test_result) VALUES
  ('CC(=O)O[C@H]1C(=O)[C@@]2(C)[C@H]([C@H](OC(=O)c3ccccc3)[C@]3(O)C[C@H](OC(=O)[C@H](O)[C@@H](NC(=O)c4ccccc4)c4ccccc4)C(C)=C1C3(C)C)[C@]1(OC(C)=O)CO[C@@H]1C[C@@H]2O', 'Compound NOT metabolized'),
  ('CC(C)(C(=O)O)c1ccc(C(O)CCCN2CCC(C(O)(c3ccccc3)c3ccccc3)CC2)cc1 (stereo not drawn) [FEXOFENADINE]', 'Compound NOT metabolized'),
  ('CC(C)NCC(O)COc1ccc(CC(N)=O)cc1 (stereo not drawn)', 'Compound NOT metabolized'),
  ('C=CCc1ccccc1OCC(O)CNC(C)C (stereo not drawn)', 'Compound NOT metabolized'),
  ('OC(Cn1cncn1)(Cn1cncn1)c1ccc(F)cc1F', 'Compound NOT metabolized'),
  ('COc1ccc2[nH]c([S+]([O-])Cc3ncc(C)c(OC)c3C)nc2c1 (stereo not drawn)', 'Compound metabolized'),
  ('N[C@@H](Cc1ccc(N(CCCl)CCCl)cc1)C(=O)O', 'Compound metabolized'),
  ('CCOc1cc(CC(=O)N[C@@H](CC(C)C)c2ccccc2N2CCCCC2)ccc1C(=O)O [REPAGLINIDE]', 'Compound metabolized'),
  ('CCCN(CCC)CCc1cccc2c1CC(=O)N2', 'Compound NOT metabolized'),
  ('COc1cc2nc(N(C)CCCNC(=O)C3CCCO3)nc(N)c2cc1OC (stereo not drawn)', 'Compound NOT metabolized'),
  ('COc1ccc2c(c1OC)C(=O)O[C@@H]2[C@H]1c2c(cc3c(c2OC)OCO3)CCN1C', 'Compound metabolized'),
  ('CC[C@@]1(O)C(=O)OCc2c1cc1n(c2=O)Cc2cc3c(CN(C)C)c(O)ccc3nc2-1', 'Compound NOT metabolized'),
  ('COc1ccc(Cc2nccc3cc(OC)c(OC)cc23)cc1OC', 'Compound NOT metabolized');
